B1: HDV Ribozyme (parent)
chain: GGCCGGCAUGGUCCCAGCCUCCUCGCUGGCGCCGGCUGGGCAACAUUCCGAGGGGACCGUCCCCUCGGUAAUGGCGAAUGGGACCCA

Variants of: B1
Assay: self-cleavage, relative activity (ratio to wild type); higher = more cleavage; co-transcriptional
Rule: self-cleavage of 0.2 or more gives 1; anything lower gives -1.

Worked examples follow.
[[record]]
alteration = "A56C A70G"
label = 1

[[record]]
alteration = "G40C A71C"
label = -1

[[record]]
alteration = "G59C G80C"
label = 1


Check this variant for self-cleavage at or above 0.2: C3A C41U 1

Check this variant for self-cleavage at or above 0.2: U47G A78G 1

Check this variant for self-cleavage at or above 0.2: C36G A43U -1

Check this variant for self-cleavage at or above 0.2: C18G A71U -1

Check this variant for self-cleavage at or above 0.2: G38U C86A 1

Check this variant for self-cleavage at or above 0.2: U46G A78G 1

Check this variant for self-cleavage at or above 0.2: U9G A87C 1

Check this variant for self-cleavage at or above 0.2: U23A G59C 1

Check this variant for self-cleavage at or above 0.2: G31A G73A 1

Check this variant for self-cleavage at or above 0.2: C14G G81C 1

Check this variant for self-cleavage at or above 0.2: C44G C49G 1
